All values here come from PubChem BioAssay.

# System: transactivating tegument protein VP16 (Human herpesvirus 1)
# Experiment notes: VP16 transactivation reporter inhibitors, counter-screen for SRC2 inhibitor project, cell-based, luminescence, single concentration (AID 652007)
# Condition label: cell-based VP16 transactivation luciferase reporter, at 8.9 µM, active compounds read high
Recorded endpoint: inhibition (%)
Numbers only; they are read as %.

Recorded inhibition (molecule N#CC(C#N)c1ccnc2ccccc12 ): 4.65

Recorded inhibition (molecule Cc1ccc2cccc(NS(=O)(=O)c3ccccc3)c2n1 ): 75.5

Recorded inhibition (molecule Cc1cc(Br)ccc1NC(=O)CN(C)C(=O)C1CCN(c2ncnc3sc(C)c(C)c23)CC1 ): 12.9

Recorded inhibition (molecule CC(C)(C)c1ccc(Oc2ccc(NC(=O)c3ccco3)cn2)cc1 ): 30.6

Recorded inhibition (molecule CC(C)N=C(NS(=O)(=O)c1ccccc1)C(Cl)(Cl)Cl ): 7.46

Recorded inhibition (molecule CN1/C(=C\C=C2/SC(=S)NC2=O)C(C)(C)c2ccccc21 ): 8.01

====

# Tested target: Oxysterols receptor LXR-beta (Homo sapiens) (UniProt P55055)
# Sequence (P55055 whole entry, looked up, the tested form may be a part): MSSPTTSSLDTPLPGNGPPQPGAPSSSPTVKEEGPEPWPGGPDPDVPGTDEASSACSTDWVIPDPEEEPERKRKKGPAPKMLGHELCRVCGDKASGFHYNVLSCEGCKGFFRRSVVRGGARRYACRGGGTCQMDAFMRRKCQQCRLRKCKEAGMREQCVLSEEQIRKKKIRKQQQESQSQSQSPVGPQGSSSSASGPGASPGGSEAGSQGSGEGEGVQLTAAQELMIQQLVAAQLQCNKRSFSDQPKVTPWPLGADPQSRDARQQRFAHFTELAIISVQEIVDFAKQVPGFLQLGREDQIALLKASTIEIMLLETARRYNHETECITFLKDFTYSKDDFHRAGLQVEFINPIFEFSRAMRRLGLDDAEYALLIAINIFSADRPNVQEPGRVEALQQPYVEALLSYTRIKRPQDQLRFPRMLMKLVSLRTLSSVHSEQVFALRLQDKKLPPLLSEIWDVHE
# Experiment notes: LXR agonists, Gal4 luciferase reporter, confirmation, counter-screen for hgDAF-12 agonist project, cell-based, luminescence, HEK293, H. glycines campaign (AID 743051)
# Condition label: 24 h, at 6.8 µM, active compounds read high
The list shows a part of the results.
Binary call on activation: yes from 0.8% upward, no beneath that.

Inquiry: Quick check: does Brc1ccc(-c2noc(-c3ccccc3)n2)o1 have activation greater than or equal to 0.8%?
Reply text: no

Inquiry: Quick check: does CS(=O)(=O)N1CCc2nc(-c3ccccc3)sc2C1 have activation greater than or equal to 0.8%?
Reply text: no

Inquiry: Quick check: does O=C(NC(=S)NC1CCCCC1)c1ccc(Cl)cc1 have activation greater than or equal to 0.8%?
Reply text: no

Inquiry: Quick check: does Cn1c(-c2ccc(C(=O)c3ccccc3)s2)nc2ccccc21 have activation greater than or equal to 0.8%?
Reply text: yes

Inquiry: Quick check: does Cc1cnc(C(=O)N2CCCC(C(=O)c3ccc(C(F)(F)F)cc3)C2)cn1 (stereo not given) have activation greater than or equal to 0.8%?
Reply text: no

Inquiry: Quick check: does COc1ccc(N=C(C)c2sc3ccccc3c2O)cc1 have activation greater than or equal to 0.8%?
Reply text: no

Inquiry: Quick check: does O=C(NCCOc1ccccc1)c1ccccc1F have activation greater than or equal to 0.8%?
Reply text: no

Inquiry: Quick check: does CC(C)n1c(=O)[nH]c2cc(C(=O)Nc3ccccc3)ccc21 have activation greater than or equal to 0.8%?
Reply text: no

Inquiry: Quick check: does Cc1ccnc(NC(=O)CCNS(=O)(=O)c2ccc(C)c(C)c2)c1 have activation greater than or equal to 0.8%?
Reply text: no

Inquiry: Quick check: does CC(=O)Nc1ccc(-c2nc3ccccc3o2)cc1 have activation greater than or equal to 0.8%?
Reply text: yes

Inquiry: Quick check: does O=C(NCCCN1CCOCC1)c1cc(-c2ccccc2F)no1 have activation greater than or equal to 0.8%?
Reply text: no

Inquiry: Quick check: does O=C(Nc1ccc2c(c1)CCC2)c1ccc(Br)s1 have activation greater than or equal to 0.8%?
Reply text: yes

Inquiry: Quick check: does O=C(Nc1ccccc1)c1ccc2c(c1)OCCCO2 have activation greater than or equal to 0.8%?
Reply text: yes

Inquiry: Quick check: does O=C(NNC(=O)c1ccc(Cl)cc1Cl)c1cccs1 have activation greater than or equal to 0.8%?
Reply text: no

Inquiry: Quick check: does Cc1ccnc(Nc2nc3ccccc3s2)n1 have activation greater than or equal to 0.8%?
Reply text: yes

Inquiry: Quick check: does O=C(Nc1ccc2oc(-c3ccccc3F)nc2c1)c1ccco1 have activation greater than or equal to 0.8%?
Reply text: no

Inquiry: Quick check: does CC(C)(C)C(=O)c1cnc(Nc2ccccc2)s1 have activation greater than or equal to 0.8%?
Reply text: no

Inquiry: Quick check: does CN1CCN(c2ccc(NC(=O)c3ccc4c(c3)OCCO4)cc2Cl)CC1 have activation greater than or equal to 0.8%?
Reply text: yes

Inquiry: Quick check: does c1ccc(Nc2nc(-c3ccncc3)cs2)nc1 have activation greater than or equal to 0.8%?
Reply text: yes

Inquiry: Quick check: does Cc1ccc(-n2cc3ccc([N+](=O)[O-])cc3n2)cc1 have activation greater than or equal to 0.8%?
Reply text: yes

Inquiry: Quick check: does CC1CCCN(c2ccc(C(=O)NCCc3ccccc3)cn2)C1 (stereo not given) have activation greater than or equal to 0.8%?
Reply text: no

Inquiry: Quick check: does COc1ccc2nc(SCc3ccccc3)nc(C)c2c1 have activation greater than or equal to 0.8%?
Reply text: yes

====

# Experiment notes: VP16 transactivation inhibitors, counter-screen for SRC1 inhibitor project, cell-based, luminescence, high throughput (AID 588824)
# Condition label: cell-based VP16 transactivation luciferase luminescence; at 3.6 µM; active compounds read high
Give measured inhibition for each item. Keep answers brief.
Numbers only; they are read as %.

Recorded inhibition (molecule Fc1ccc2[nH]c3c(NCc4ccccc4)ncnc3c2c1 ): 20.2

Recorded inhibition (molecule O=C(Nc1cccc2c1CCCC2)c1cc([N+](=O)[O-])ccc1Cl ): 25

Recorded inhibition (molecule COc1cc(NC(=O)COc2cc(O)c3c(c2)OC(C)(C)CC3=O)cc(OC)c1OC ): 41.3

Recorded inhibition (molecule CCCCNc1nc2c(c(=O)n(C)c(=O)n2C)n1Cc1cccc(OC)c1 ): 26.6

Recorded inhibition (molecule Nc1ncnc(NCc2ccc(F)cc2)c1[N+](=O)[O-] ): 29.9

Recorded inhibition (molecule CCOc1ccc(-c2nnc3ccc(SCC(=O)NCc4ccco4)nn23)cc1 ): -3.63

Recorded inhibition (molecule Cn1ccnc1SCC(=O)NC1(C#N)CCCCC1 ): -3.8

Recorded inhibition (molecule COc1ccc(-n2ncc3c(N(C)C4CCCCC4)ncnc32)cc1 ): 40.1

Recorded inhibition (molecule COc1ccc(-n2ncc3c(N4CCCCC4)ncnc32)cc1 ): 23.9

Recorded inhibition (molecule O=C(NN=Cc1c(O)ccc2ccccc12)c1ccncc1 ): 65.3

Recorded inhibition (molecule CCn1ccnc1CN(C)Cc1cn[nH]c1-c1ccc(OC)c(F)c1 ): 28

Recorded inhibition (molecule Cn1c(/C=C/c2ccc(Cl)cc2)c([N+](=O)[O-])c(=O)n(C)c1=O ): 28.6

Recorded inhibition (molecule COc1ccc(-n2c(NNC(C)=O)nc3sc4c(c3c2=O)CCCC4)cc1 ): 31.6

Recorded inhibition (molecule CCOc1cccc(/C=N/NC(=O)c2cccnc2)c1O ): 9.63

Recorded inhibition (molecule O=C(Nc1nc(-c2ccccn2)cs1)c1cccc(-n2cnnn2)c1 ): 7.13

Recorded inhibition (molecule O=C(CNC(=O)Cc1ccccc1)N=Nc1c(O)n(Cc2ccc3c(c2)OCO3)c2ccccc12 ): 3.04

Recorded inhibition (molecule CC1CCCCN1c1ncnc2ccccc12 (centres undefined) ): 17.9

Recorded inhibition (molecule Cc1cccc[n+]1CC(=O)/C=C1\N(C)c2ccccc2C1(C)C ): 23.5

Recorded inhibition (molecule CCOc1cc(CNc2ccc3c(c2)OCCO3)cc(Br)c1OC ): -7.96

Recorded inhibition (molecule O=C(NNC(=O)c1ccccc1O)c1ccc(Cl)c(S(=O)(=O)N2CCc3ccccc32)c1 ): 14.9

Recorded inhibition (molecule COc1ccccc1C(=O)Nc1nc2ccccc2s1 ): 71

Recorded inhibition (molecule O=[N+]([O-])c1ccc(NC(c2ccccc2)c2ccc3cccnc3c2O)cc1 (centres undefined) ): 71.2

Recorded inhibition (molecule CCN(CC)CCNC(=O)c1ccc2c(c1NCCO)C(=O)c1ccccc1C2=O ): -8.97

Recorded inhibition (molecule COc1ccc(-n2c(C)c([N+](=O)[O-])c3ccc(O)c(CN4CCCCC4)c32)cc1 ): 39.5

Recorded inhibition (molecule CC(=O)Nc1sc2c(c1-c1nc3ccccc3s1)CCN(C(C)C)C2 ): 59.3

Recorded inhibition (molecule CN(C(=O)COC(=O)/C=C/c1cccc([N+](=O)[O-])c1)C1CCS(=O)(=O)C1 (centres undefined) ): 29.5

Recorded inhibition (molecule COC(=O)c1sc2cnccc2c1N ): 4.54

Recorded inhibition (molecule COc1ccc(-c2nsc3c(N4CCCCC4C)ncnc23)cc1 (centres undefined) ): 68.4

Recorded inhibition (molecule C=C1C(=O)OC2CC1C(OC(C)=O)CC(C)=CCCC(C)=CCCC2(C)O (centres undefined) ): 34.9

Recorded inhibition (molecule CCOC(=O)c1c(C)cc2c(CO)n[nH]c(=O)c2c1C ): 23.1

Recorded inhibition (molecule Cc1cccc(Nc2ncnc3ccc(Br)cc23)c1 ): 25.8

Recorded inhibition (molecule CCOC(=O)N1CCN(CC(=O)Nc2ccc(F)c(F)c2)CC1 ): -4

Recorded inhibition (molecule O=S(=O)(c1cccc(C(F)(F)F)c1)N1c2ccccc2-n2cccc2C1c1cccnc1 (centres undefined) ): 17.7

Recorded inhibition (molecule CC(=O)NC(c1cc(Cl)c2cccnc2c1O)C1CC1 (centres undefined) ): 8.51

Recorded inhibition (molecule C=CCOc1ccc(/C=C2\SC(=S)N(CCC(=O)O)C2=O)cc1 ): -38.4

Recorded inhibition (molecule CC(C)N1C(=O)c2ccccc2N(Cc2ccccc2)S1(=O)=O ): 1.81

Recorded inhibition (molecule Cc1ccccc1-c1ccc(CN2C(C)C(=O)N(Cc3cn(Cc4ccco4)nn3)CCS2(=O)=O)cc1 (centres undefined) ): 6.95

Recorded inhibition (molecule Cc1ccc(C)c(S(=O)(=O)N2CCN(c3ncnc4sccc34)CC2)c1 ): 56.5

Recorded inhibition (molecule CCN1/C(=C/c2ccc3ccccc3[n+]2CC)C=Cc2ccccc21 ): 84.7
